# Test system: IGR37-XP cells (Vemurafenib-resistant)
# Assay name: Kinase inhibitor library screening, PrestoBlue cell viability, 1 or 10 μM, 72 h
# Condition context: IGR37 XP, 1μΜ; in %
Cut-off 100 on cell viability (kinase inhibitor library screening): below means true (1), at or above means false (0).

>>> assigned_class("FC(F)(F)c1ccc(Nc2nc3ccc(Oc4ccnc(-c5ncc(C(F)(F)F)[nH]5)c4)cc3[nH]2)cc1")
"false (0)"
>>> assigned_class("Cc1cccc(-c2[nH]c(C(C)(C)C)nc2-c2ccc3nccnc3c2)n1")
"true (1)"
>>> assigned_class("CCn1c(N)c(C(=O)NC)c(=O)c2ccc(C#C[C@@](C)(O)COC)nc21")
"true (1)"
>>> assigned_class("N#CC1(c2ccc(NC(=O)c3cccnc3NCc3ccncc3)cc2)CCCC1")
"false (0)"
